- Test system: SK-MEL-28
- ASSAY_PROTOCOL: NCI tumour cell line growth inhibition, 48 h
The source made the active and inactive calls. No stated cut-off is given here; in the data, active = GI50 up to about 1.1 µM and inactive = higher.
Parameter call: string, one of active, inactive

O=C(/C=C/c1c[nH]c2ccccc12)c1ccccc1O    inactive
CCCCCCCCCCCCCCCCCC(=O)OCC(COC(=O)CCCN)OC(=O)CCCN (stereo not given)    inactive

What outcome does the record of this test show for `COc1ccc(-c2c(C#N)c(S)n(NS(=O)(=O)c3ccc(C)cc3)c(=O)c2C#N)cc1` ?
inactive

Would you kindly repeat that for `CN(C)CCNC(=O)c1ccc(NCCCN(C)CCCNc2ccc(C(=O)NCCN(C)C)c3nc4ccccc4c(O)c23)c2c(O)c3ccccc3nc12` ?
active

Would you kindly repeat that for COc1ccccc1C1C2=C(COC2=O)OC(C)(C)Oc2cc3c(cc21)OCO3 (stereo not given) ?
inactive

Would you kindly repeat that for `CCC(=O)O[C@H]1CC[C@H]2[C@@H]3CCC4=C/C(=N/NC(=O)c5cccc6c(=O)c7ccccc7[nH]c56)CC[C@]4(C)[C@H]3CC[C@]12C` ?
inactive

Would you kindly repeat that for CC(C(=O)n1nnc2ccccc21)N(c1ccccc1)c1ccccc1 (stereo not given) ?
inactive

Would you kindly repeat that for `CSc1nc2c(N)ncnc2n1C` ?
inactive

Would you kindly repeat that for `CN(C)CCn1cnc2ncccc2c1=O` ?
inactive

Would you kindly repeat that for NC(=O)C[S+]([O-])CC(N)C(=O)O (stereo not given) ?
inactive
